B1: ANKRD17 (parent)
chain: EMVRFLLEAGADQEHKTDEMHTAL

- Variants of: B1
- protocolNotes: protein stability index of a GFP-peptide fusion (GPS, HEK-293T) (PSI 1-6); higher = more stable;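 further: lentivirally expressed fusions sorted by FACS into six bins by GFP to DsRed ratio, PSI derived from sequencing read proportions per bin multiplied by bin number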
- appliedConditions: c terminus: a fixed tail appended
Entries and their protein stability index values follow.
Please reply with the value in numeric form only.

>  <mutationDescriptor>
E14Q

>  <obsValue>
2.46

$$$$
>  <mutationDescriptor>
V3R

>  <obsValue>
4.56

$$$$
>  <mutationDescriptor>
M2E

>  <obsValue>
4.73

$$$$
>  <mutationDescriptor>
A23V

>  <obsValue>
2.6

$$$$
>  <mutationDescriptor>
E1K

>  <obsValue>
2.48

$$$$

Given the entry `V3Y` , report its measured protein stability index.
3.02

Quick one: protein stability index of `T22A` ?
2.77

Look at this variant and give its reported protein stability index. `T17V`
2.37

Which protein stability index is reported for this variant? `D12L`
1.09

May I ask what protein stability index has been recorded for `V3T` ?
4.51

# protein stability index lookup, item `F5D`
4.92

Requested read-out: protein stability index. Entry: `D18Q`
2.67

Return reported protein stability index; argument: `D18Y`
1.44

Field request: protein stability index | item: `E14T`
2.04
